system: MS2 coat protein; experiment: apparent Kd, MS2 coat protein; higher = weaker binding; RNA-MaP array; tryptophan 2.4 mM where present; conditions: ligand present: tryptophan; designed as: OFF switch for tryptophan
// map apparent Kd to label using class 0 (below 20 nM), class 1 (20 nM to below 100 nM), class 2 (100 nM or more)

Lab log: GGAUAGGACACGGCCGCCACUGCGCUAGGAUACUAGAACAUUUCCUCACAUGAGGAUCACCCAUGUAGGACCGGGUGUCCUAUCG — assign apparent Kd category
class 2

Where would GGAUGCGGCACGGCCGCCACUGCGGUGGUGUGACAUGAGGAUCACCCAUGUUGUCAUGCGGCCCUUAGGACCGGGUGGCGUGUCC land among the classes by reported apparent Kd?
class 1

Using the reported apparent Kd, which band applies to AUGUACAUGACGGCCGCCACUACACUGAAAGUGGUCCAGAACAUGAGGAUCACCCAUGUAUCAAGUAGGACCGGGUCAUGUACAU ?
class 2

Which class is correct for the following sequence? CAUCCUAGUACAUGAGGAUCACCCAUGUAUCGAGGACCGGUACGGCCGCCACUCGAAUGGCGGAUCGUUAAUCCUCUAGGAUGGA
class 0

Kindly identify the class of AGAUGAGUCACGGCCGCCACUCACUACAGGUUCACCCUUGGUUAACAUGAGGAUCACCCAUGUGGGAGGACCGGGUGAUGAGCAU .
class 1

Given UCUGCCGCGGCUCCGAUCCUCCUGUAGUUCCGAGGACCGGUACGGCCGCCACUCGUAGCACAUGAGGAUCACCCAUGUCUUGCGG , name the class its apparent Kd places it in.
class 0

Which class is correct for the following sequence? CUAUAAGUACCGGUCCUCAGAUCCUCAUGACGAGGACCGGUACGGCCGCCACUCGAAACAUGAGGAUCACCCAUGUAAUAAUAAU
class 0

Form field 'band' for AAUGUAUUCCACAUGAGGAUCACCCAUGUGCGAGGACCGGUACGGCCGCCACUCGGUGUUGGGAUCUGUUCUGAAUACAUUAAUG
class 2

Would you mind sorting GUAGCGACGGCGGCCGCCACUCACAGGUGAGGGUAGACCAACCUUCACAUGAGGAUCACCCAUGUGAGGACCGGGCUGUCGCUAC into the appropriate category?
class 2

Record AAUGUAUGGCACAUGAGGAUCACCCAUGUGCGAGGACCGGUACGGCCGCCACUCGGUCCUGGGAACUUAUUACUAUACAUUAAUG — which class?
class 1

For AUAACGAGUGGUGGAUAAUCCUCAUGUAAACGAGGACCGGUACGGCCGCCACUCGAUAACAUGAGGAUCACCCAUGUAAUAAUAA , which apparent Kd bin applies?
class 0

Which category fits this record: GAUCGAAAUAACGUCUAGGAAAACUAGACGCGAGGACCGGUACGGCCGCCACUCGGGUGGCACAUGAGGAUCACCCAUGUAGAUC
class 2

Given CCUCAUGAACAUGAGGAUCACCCAUGUACACGAGGACCGGUACGGCCGCCACUCGAAUAAGCUAAAUAUAAAUAAUAAUAAUAGC , name the class its apparent Kd places it in.
class 1

Category of UGUAUUGGAAACAGUACUAGUGAUCCGGUCCGAGGACCGGUACGGCCGCCACUCGAAAUUAAUAAACAUGAGGAUCACCCAUGUA , please.
class 1
